Tested on: A549
Assay Text: NCI tumour cell line growth inhibition, 48 h
The source made the active and inactive calls. Rule as the data show it: active = GI50 up to about 1.1 µM and inactive = higher.
Thanks in advance; please answer with one of these: active, inactive

| Compound | Label Value |
| --- | --- |
| OC12CCC3(O)c4ccccc4C3C1c1ccccc12 (stereo unspecified) | inactive |
| CN(/N=C/c1cccs1)c1ccc(Cl)cc1[N+](=O)[O-] | inactive |
| CC(=O)O[C@@H]1[C@@H](O)C2=C3[C@]4(C)[C@@H]1C(C)(C)C(=O)C[C@@H]4[C@]3(O)[C@H](OC(C)=O)[C@@]1(C[C@@H]1C)C2=O | inactive |
| O=P(Oc1ccc(Cl)cc1)(Oc1ccc(Cl)cc1)N1CC1 | inactive |
| CN(C)c1ccc(/N=C2/C=CC(=C(C#N)C#N)c3ccccc32)cc1 | active |

Q: Assay result, entry O=C1C(=C(C(F)(F)Cl)C(F)(F)Cl)C2CCC1C2 (stereo unspecified) — outcome?
Ans: inactive

Q: Assay result, entry O=C(c1ccc(Cl)cc1)N(Cc1cccnc1)C(=S)N(Cc1cccnc1)C(=O)c1ccc(Cl)cc1 — outcome?
Ans: inactive

Q: Assay result, entry COc1ccccc1/C=C1\Sc2scc(-c3ccc(O)c(O)c3)[n+]2C1=O — outcome?
Ans: inactive

Q: Assay result, entry CC(=O)c1c2c(cc3c1CC1(C3)Cc3cc4c(c(C(=O)O)c3C1)CCC4)CCC2 (stereo unspecified) — outcome?
Ans: inactive

Q: Assay result, entry O=[N+]([O-])c1cc(F)ccc1Sc1ccccc1 — outcome?
Ans: inactive

Q: Assay result, entry C/C(=N/NC(=S)N1CCCCCC1)c1ccccc1O — outcome?
Ans: inactive

Q: Assay result, entry CN(C)C(=N)NC(=S)N(C)C — outcome?
Ans: inactive

Q: Assay result, entry CCCCCCCCOc1ccc(/C=C/C2=[N+](CCO)CCO2)cc1 — outcome?
Ans: inactive

Q: Assay result, entry CCOC(=O)C(=O)NNc1nc2c(s1)C(=O)c1ccccc1C2=O — outcome?
Ans: inactive

Q: Assay result, entry Cc1nc(-c2cc3cc([N+](=O)[O-])ccc3oc2=O)cs1 — outcome?
Ans: inactive

Q: Assay result, entry c1ccc2cc(NCNc3ccc4ccccc4c3)ccc2c1 — outcome?
Ans: inactive

Q: Assay result, entry Oc1ccc(/C=C/c2cccc(/C=C/c3ccc(O)c(O)c3)n2)cc1O — outcome?
Ans: inactive

Origin of measurements: ChEMBL document CHEMBL1201862
